Assay: High Content Imaging Cell-Based qHTS for Inhibitors of the mTORC1 Signaling Pathway in MEF (Tsc2-/-, p53-/-) Cells (AID 2666);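 note: percent of cells scored positive for phospho-rpS6 Ser235/236 immunostaining by imaging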
Settings: series mostly up to 38.3 µM
Inconclusive results are not listed. The source made the active and inactive calls. Calls come from the whole dose curve; as a rule, active = well fitted inhibition curve with a large enough effect; inconclusive = small, poorly fitted or top-dose-only effect; inactive = flat fitted curve, though single readings scatter.
Choose one outcome from this list and give only that: t for active, f for inactive

Ask | Hi, do you know how `CC#C[C@]1(O)CC[C@H]2[C@@H]3CCC4=CC(=O)CCC4=C3[C@@H](c3ccc(N(C)C)cc3)C[C@@]21C` came out in this test?
Reply | f

Ask | Hi, do you know how `Fc1ccc([C@@H]2CCNC[C@H]2COc2ccc3c(c2)OCO3)cc1` came out in this test?
Reply | t

Ask | Hi, do you know how Cc1ccccc1N1C(=O)c2cc(S(N)(=O)=O)c(Cl)cc2NC1C (stereo not given) came out in this test?
Reply | f

Ask | Hi, do you know how CC1COc2c(N3CCN(C)CC3)c(F)cc3c(=O)c(C(=O)O)cn1c23 (stereo not given) came out in this test?
Reply | f

Ask | Hi, do you know how COc1ccc(C2CNC(=O)C2)cc1OC1CCCC1 (stereo not given) came out in this test?
Reply | f

Recorded values, source PubChem BioAssay (NCATS).
